assay: Drug level in BALB/c mouse plasma after 6 hrs at 1 mg/kg, ip; assay type: ADME, organism-based; set-up: dose 1 mg/kg, route intraperitoneal; conditions: read-out: Drug uptake
Measure Name: concentration at 6 h (ng/mL)
The response must be a number in ng/mL with no trailing unit.

*Q* What value of measured concentration at 6 h is listed for O=C(O)C[C@@H](NC(=O)CNC(=O)c1cc(O)cc(NC2=NCC(F)CN2)c1)c1cc(Cl)cc(Br)c1O (stereo partly specified) ?
*A* 3300

====

experiment: Half life in mouse at 20 mg/kg po or 10 mg/kg iv; assay type: ADME, organism-based; settings: in vivo
// reported half-life for each item listed
Just the number please, in h, no unit attached.

*Q* What value of half-life has been recorded for this entry: O=C(O)C[C@H](NC(=O)CNC(=O)c1cc(O)cc(N=C2NCC(F)CN2)c1)c1cc(Cl)cc(Br)c1O (some centres not stated)
*A* 5.1

*Q* // next record O=C(O)C[C@@H](NC(=O)CNC(=O)c1cc(O)cc(NC2=NCC(F)CN2)c1)c1cc(Cl)cc(Br)c1O (some centres not stated)
*A* 2

Values were extracted from ChEMBL document CHEMBL1147945.
